Across several studies, compounds have been characterized by their pKi on UniProtKB P00735; a selection follows.
Note on pKi: it is the negative log10 of concentration, concentration in mol/L.

Which pKi is reported for this compound? CC(C)OC(=O)C(Cc1cccc(C(N)N)c1)NC(=O)CNS(=O)(=O)c1ccc2ccccc2c1 (stereo not drawn)
5.92

Please do the same for "CC(C)(C)NC(=O)NC1CCN(C(=O)[C@H](Cc2cccc(C(=N)N)c2)NS(=O)(=O)c2cccc(-c3ccc(CO)cc3)c2)CC1" as well.
4.92

Please do the same for "CC(C)OC(=O)[C@H]1CCCN(C(=O)[C@H](Cc2cccc(C(=N)N)c2)NS(=O)(=O)c2ccc3ccccc3c2)C1" as well.
6.29

Please do the same for "N=C(N)c1ccc(CNC(=O)[C@@H]2Cc3ccc(cc3)NC(=O)CN3CCN(CC3)CC(=O)Nc3ccc(cc3)C[C@@H](NS(=O)(=O)NC3CCCCC3)C(=O)N2)cc1" as well.
4.80

Please do the same for "N=C(N)c1cccc(C[C@H](NS(=O)(=O)c2cccc(-c3ccc(F)cc3)c2)C(=O)N2CCC(CCN)CC2)c1" as well.
8.30

Please do the same for "CC(C)(C)NC(=O)NC1CCN(C(=O)[C@H](Cc2cccc(C(=N)N)c2)NS(=O)(=O)c2cccc(-c3cccc(CN)c3)c2)CC1" as well.
5.88

Please do the same for "CCNC(=O)NCCC1CCN(C(=O)[C@H](Cc2cccc(C(=N)N)c2)NS(=O)(=O)c2cccc(NC(=O)CCN)c2)CC1" as well.
6.89

Please do the same for "Cc1ccc(S(=O)(=O)N[C@@H](Cc2cccc(C(=N)N)c2)C(=O)N2CCCCC2)cc1" as well.
6.47
